Cited source for all entries: PubChem BioAssay (NCI)

Test: NCI Yeast Anticancer Drug Screen. Data for the cln2 rad14 strain (AID 165);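 further: 0% = growth equal to vehicle treated cultures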
Conditions: S. cerevisiae cln2 rad14 strain, at 50.0 µM, stronger effect = higher value
The panel holds about 79,000 compounds, 15% with a hit somewhere; the sample as a whole holds those more often.
Measured growth inhibition of individual entries
The reply should contain only the number, in %.

Worked examples, 3 molecules total:
- Nc1nc(Cc2ccccc2)c(CCCNc2ccccc2)c(=O)[nH]1: -74.3
- O=c1nc(Oc2ccccc2)nc2ccc(Cl)nn12: 5.7
- CN(C)c1ccc(/[N+]([O-])=C/c2cccc3ccccc23)cc1: -51.9

Value of measured growth inhibition for the entry CC(O)CN(CC(C)O)S(=O)(=O)c1ccc(N)cc1 (stereo unspecified) : -9.3

Value of measured growth inhibition for the entry COc1ccc(N2C(=O)C(C)SC23C(=O)Nc2ccccc23)cc1 (stereo unspecified) : 2.5

* * *

Measured growth inhibition of individual entries
Experiment: NCI Yeast Anticancer Drug Screen. Data for the cln2 rad14 strain (AID 165);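 further: 0% = growth equal to vehicle treated cultures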
Settings: S. cerevisiae cln2 rad14 strain, at 50.0 µM, stronger effect = higher value
Experimental: Growth inhibition of yeast strains with defined genetic alterations is measured as a screen for potential anti-cancer activity. Selected strains with alterations in DNA damage repair or cell cycle control were exposed to compounds and growth inhibition was measured relative to vehicle treated controls. The strain used in this assay is cln2 rad14
About 79,000 compounds went through this panel and 15% of them were active in at least one assay; those are over-represented in the sample as a whole. Calls of active or inactive are those of the source. Cut-off read from the data, not from the text of the source: active = growth inhibition above about 70%; inactive = the rest.

• NC(CSSCC(N)=NC1CCCCC1)=NC1CCCCC1 = 7.35% (inactive)
• COc1cc(C(C)S(=O)(=O)c2ccc(C)cc2)ccc1O (stereo unspecified) = 6.5% (inactive)
• CC(C)=Cc1cc(-c2cc(C=C(C)C)[nH]n2)n[nH]1 = -24.6% (inactive)
• O=C1CSC(c2c[nH]c3ccccc23)N1c1cccc([N+](=O)[O-])c1 (stereo unspecified) = -0.7% (inactive)
• NC(=O)CCN(CCC(N)=O)c1ccc2c(c1)C(=O)c1ccccc1-2 = -22.9% (inactive)

Value of measured growth inhibition for the entry CC(=O)OCC1OC(n2cnc([N+](=O)[O-])c2Br)C(OC(C)=O)C1OC(C)=O (stereo unspecified) : 25.5% (inactive)

Value of measured growth inhibition for the entry `COc1ccc(N=Cc2cc(OC)c(OC)c(OC)c2)cc1` : -3.55% (inactive)

Value of measured growth inhibition for the entry `N#CC(C#N)=C1C=CC=CC=C1` : -11.4% (inactive)

Value of measured growth inhibition for the entry `Cc1ccc(S(=O)(=O)NN(C)C(=O)c2ccccc2)cc1` : -25.2% (inactive)

Value of measured growth inhibition for the entry `CC(=O)[OH+]c1c(I)cc(I)cc1C(=O)[O-].CC(=O)[OH+]c1c(I)cc(I)cc1C(=O)[O-].[Cu+2]` : -5% (inactive)

Value of measured growth inhibition for the entry `Cc1cc(C)c(CCl)c(C)c1CCl` : -57.5% (inactive)

* * *

Assay: NCI Yeast Anticancer Drug Screen. Data for the bub3 strain (AID 167)
Details: S. cerevisiae bub3 mutant strain, at 50.0 µM, stronger effect = higher value
Compounds without any hit were thinned out: in the full panel of roughly 79,000, 15% have a hit.
Experimental endpoint: growth inhibition (%)
The reply should contain only the number, in %.

- O=C1C(Cl)C(c2ccc(O)cc2)N1n1cnc2ccccc2c1=O (stereo unspecified): 32.8
- COc1cc(CC2c3cc(OC)c(OC)cc3CC[N+]2(C)C)c(Oc2cc(CC3c4cc(OC)c(OC)cc4CC[N+]3(C)C)ccc2OC)cc1OC (stereo unspecified): -6.05
- CC(C)C[N+](=O)[O-]: -1.25
- Nc1cccc(C(=O)O)c1C(=O)O: -4.2
- O=C1c2ccccc2OC(Cl)(c2ccccc2)C1Cl (stereo unspecified): 22.7

Value of measured growth inhibition for the entry `Cc1cc(C(F)(F)F)cc(-n2nc(NS(=O)(=O)c3cc(C)c(Cl)cc3S)nc2N)n1` : 4.5

Value of measured growth inhibition for the entry `CCOC(=O)NC(S(=O)(=O)O)S(=O)(=O)O` : 16.1

Value of measured growth inhibition for the entry `N#Cc1[nH]c(=O)n(-c2ccc(Cl)cc2)c1N` : -12.4

Value of measured growth inhibition for the entry COc1ccc(C(NCCn2cnc3c2c(=O)n(C)c(=O)n3C)c2ccccc2)cc1 (stereo unspecified) : -4.5

Value of measured growth inhibition for the entry O=C(CN(Cc1ccccc1)Cc1ccccc1)C(O)C1OC(c2ccccc2)OCC1O (stereo unspecified) : -1.65

Value of measured growth inhibition for the entry `c1ccc(CNCCCNCCCCNCCCNCc2ccccc2)cc1` : 17.8

* * *

Measured growth inhibition of individual entries
Experiment: NCI Yeast Anticancer Drug Screen. Data for the cln2 rad14 strain (AID 165);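 further: 0% = growth equal to vehicle treated cultures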
Settings: S. cerevisiae cln2 rad14 strain, at 50.0 µM, stronger effect = higher value
The panel holds about 79,000 compounds, 15% with a hit somewhere; the sample as a whole holds those more often.
The reply should contain only the number, in %.

Worked examples, 10 compounds total:
• O=C(OC(=O)c1cccc2ccccc12)c1cccc2ccccc12 = 43.3
• Nc1[nH]n(-c2ccccc2)c(=O)c1/C=N/C(=S)NC1CCCCC1 = -63.2
• Clc1cccc(NCNC2Nc3ccccc3N2)c1 = -14.3
• O=C(O)Cc1c(-c2ccccc2)nc(=S)[nH]c1-c1[nH]c(=S)nc(-c2ccccc2)c1CC(=O)O = -12.3
• CCSCC(C)C(=O)OC (centres undefined) = 23.6
• O=C(O)c1ccncc1 = 46.9
• O=C1CSC=NN1c1ccccc1 = -9.75
• N.N.N.N.N.O=C([O-])c1nn[n-]n1.[Cl-].[Co+3] = 23.4
• COC(=O)C(=O)/C(=C\N1C(=O)CC(=O)NC1=S)C(=O)c1ccc([N+](=O)[O-])cc1 = 1.5
• CCCCCCCCCSc1nc2ccc(N=Cc3ccccc3O)cc2s1 = -10.1

Value of measured growth inhibition for the entry `COc1ccc(C=Nc2ccc(O)cc2)cc1` : 34.1

Value of measured growth inhibition for the entry `CCCCCOP(=O)(Cc1ccc(Cl)cc1)OCCCCC` : 99.5

* * *

Test: NCI Yeast Anticancer Drug Screen. Data for the sgs1 mgt1 strain (AID 161);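 further: 0% = growth of cultures given vehicle only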
Conditions: S. cerevisiae sgs1 mgt1 strain, at 50.0 µM, stronger effect = higher value
Compounds without any hit were thinned out: in the full panel of roughly 79,000, 15% have a hit.
Experimental endpoint: growth inhibition (%)
The reply should contain only the number, in %.

• COc1cc2ccc3c(c2cc1OC)CCc1cn[nH]c1-3 = 8
• COc1ccc(OC)c(C(=O)c2cccc(C(=O)c3cc(OC)ccc3OC)n2)c1 = 42.5
• c1ccc(C2(c3ccccc3)Oc3ccccc3O2)cc1 = -6.45

Value of measured growth inhibition for the entry `CC(=O)c1c(C)[nH]c(-c2ccccc2)c1NS(=O)(=O)c1ccc(N)cc1` : 25.4

Value of measured growth inhibition for the entry `CCS(=O)(=O)CCNC(=O)NS(=O)(=O)c1ccc(C)cc1` : -11.8

Value of measured growth inhibition for the entry `CCCCSc1nc2c(=O)[nH][nH]c(=O)c2n1Cc1ccccc1` : 23.2

* * *

Assay: NCI Yeast Anticancer Drug Screen. Data for the mec2-1 strain (AID 157)
Settings: S. cerevisiae mec2-1 strain, at 50.0 µM, stronger effect = higher value
About 79,000 compounds went through this panel and 15% of them were active in at least one assay; those are over-represented in the sample as a whole.
Experimental endpoint: growth inhibition (%)
The reply should contain only the number, in %.

Worked examples, 5 molecules total:
• NC(=O)ON=C1CCN(Cc2ccccc2)CC1 = 15.4
• N#CC(C#N)C1c2ccccc2Oc2ccccc21 = -8.55
• COC(=O)C1=NC(=S)N=C(C(=O)OC)C1(C)C(=O)c1ccc(Cl)cc1 = 2.65
• CCCCON1C[C@H](OC(C)=O)C(OC(C)=O)[C@H](OC(C)=O)C1 (stereo partly specified) = -15.9
• COc1ccc(C=Nc2c(N)[nH]c(=S)[nH]c2=O)cc1 = -12.8

Value of measured growth inhibition for the entry O=C(NC(=O)C1CCC(=O)N1Cc1ccccc1)NC1CCC(=O)N1Cc1ccccc1 (stereo unspecified) : 3.1

* * *

Measured growth inhibition of individual entries
Assay: NCI Yeast Anticancer Drug Screen. Data for the bub3 strain (AID 167)
Conditions: S. cerevisiae bub3 mutant strain, at 50.0 µM, stronger effect = higher value
Compounds without any hit were thinned out: in the full panel of roughly 79,000, 15% have a hit.
The reply should contain only the number, in %.

Worked examples, 3 compounds total:
• COc1cccc(CCNc2ccncc2N)c1 = -29.1
• CCOC(=O)/C(N=Nc1ccc(O)cc1)=C(\C)O = -1.2
• CCCCN=C=NCCC[N+](C)(C)C = 2.8

Value of measured growth inhibition for the entry COC(=O)C(CO)NC(=O)C(CC(C)C)NC(=O)C(CC(C)C)NC(=O)OCc1ccccc1 (configuration not stated) : -5.1

Value of measured growth inhibition for the entry COc1cc(OC)cc(C2OC3=C(Nc4ccccc4N3)C2=O)c1 (configuration not stated) : 19.4

Value of measured growth inhibition for the entry `Fc1ccc(Cl)c(-c2nc3ccccc3[nH]2)c1` : -1.5
